Experiment: Cytotoxicity against human MT4 cells assessed as reduction in cell viability measured after 5 days by MTT assay
Type: toxicity, cell-based
Conditions: time 5 day
Measured CC50 at 120 h by item

{"structure string": "Cc1cnc(Nc2ccc(C#N)cc2)nc1Nc1c(F)cc(-c2ccoc2)cc1F", "CC50 at 120 h [µM]": 4.2}
{"structure string": "Cc1cc(-c2cnc(C(F)(F)F)nc2)cc(C)c1Nc1ccnc(Nc2ccc(C#N)cc2)n1", "CC50 at 120 h [µM]": 4.9}
{"structure string": "Cc1cnc(Nc2ccc(C#N)cc2)nc1Nc1c(F)cc(-c2ccco2)cc1F", "CC50 at 120 h [µM]": 8.1}
{"structure string": "Cc1ncc(-c2cc(C)c(Nc3ccnc(Nc4ccc(C#N)cc4)n3)c(C)c2)cn1", "CC50 at 120 h [µM]": 3.9}
